Recorded IC50 values for a group of compounds are listed next.
System: colon cancer (HT-29)
Assay: Antiproliferative assay, HT-29
Format: cell-based
Settings: Homo sapiens; HT-29 colon cancer cell line; read-out: Antiproliferative activity IC50 ± SEM (nM) HT-29
Unit nM implied. Number only.

The cases that follow already have their IC50 on record.
{"columns": ["COMPOUND", "TARGET OR TEST SYSTEM", "UNIT ABBREV", "MEASURED NUMBER"],
 "data": [
  ["COc1ccc2[nH]c(=O)c3c(c2c1)OC(N)=C(C#N)C3c1ccccc1 (stereo not shown) [Compound 5c]", "colon cancer (HT-29)", "nM", 70],
  ["COc1ccc2[nH]c(=O)c3c(c2c1)OC(N)=C(C#N)C3c1ccc(Cl)cc1 (stereo not shown) [Compound 5l]", "colon cancer (HT-29)", "nM", 63],
  ["Cc1ccc2c3c(c(=O)[nH]c2c1)C(c1ccccc1)C(C#N)=C(N)O3 (stereo not shown) [Compound 5d]", "colon cancer (HT-29)", "nM", 37],
  ["COc1ccc(C2C(C#N)=C(N)Oc3c2c(=O)[nH]c2ccc(C)cc32)cc1 (stereo not shown) [Compound 5g]", "colon cancer (HT-29)", "nM", 74],
  ["COc1ccc(C2C(C#N)=C(N)Oc3c2c(=O)[nH]c2ccc(OC)cc32)cc1 (stereo not shown) [Compound 5h]", "colon cancer (HT-29)", "nM", 29],
  ["N#CC1=C(N)Oc2c(c(=O)[nH]c3ccccc23)C1c1ccccc1 (stereo not shown) [Compound 5a]", "colon cancer (HT-29)", "nM", 32],
  ["COc1ccc(C2C(C#N)=C(N)Oc3c2c(=O)n(C)c2ccccc32)cc1 (stereo not shown) [Compound 5i]", "colon cancer (HT-29)", "nM", 33],
  ["COc1ccc(C2C(C#N)=C(N)Oc3c2c(=O)[nH]c2ccccc32)cc1 (stereo not shown) [Compound 5f]", "colon cancer (HT-29)", "nM", 56],
  ["Cn1c(=O)c2c(c3ccccc31)OC(N)=C(C#N)C2c1ccccc1 (stereo not shown) [Compound 5e]", "colon cancer (HT-29)", "nM", 27],
  ["Cc1ccc2[nH]c(=O)c3c(c2c1)OC(N)=C(C#N)C3c1ccc(Cl)cc1 (stereo not shown) [Compound 5k]", "colon cancer (HT-29)", "nM", 42]
]}

Req: # query: IC50 of entry C#Cc1cccc(Nc2ncnc3cc(OCCOC)c(OCCOC)cc23)c1 [Erlotinib, reference compound]
Resp: 30

Req: // query: N#CC1=C(N)Oc2c(c(=O)[nH]c3ccccc23)C1c1ccc(Cl)cc1 (stereo not shown) [Compound 5j]
Resp: 46

Req: Likewise for Cc1ccc2[nH]c(=O)c3c(c2c1)OC(N)=C(C#N)C3c1ccccc1 (stereo not shown) [Compound 5b] ?
Resp: 50

* * *

Here the recorded viability at 4 days, 50 µM is given for each entry.
Experiment: Cell viability assay (MTT) on MCF-10A normal cell line
Format: cell-based
Conditions: human, MCF-10A mammary gland epithelial normal cells, MCF-10A cells, 50 μM of each compound, four days of incubation
Answer with the number, then the unit.

These recorded examples may help you get a feel for the data.
{"columns": ["COMPOUND", "viability at 4 days, 50 µM"],
 "data": [
  ["Cc1ccc2[nH]c(=O)c3c(c2c1)OC(N)=C(C#N)C3c1ccccc1 (stereo not drawn) [Compound 5b]", "90%"],
  ["COc1ccc2[nH]c(=O)c3c(c2c1)OC(N)=C(C#N)C3c1ccccc1 (stereo not drawn) [Compound 5c]", "91%"],
  ["Cc1ccc2c3c(c(=O)[nH]c2c1)C(c1ccccc1)C(C#N)=C(N)O3 (stereo not drawn) [Compound 5d]", "93%"],
  ["COc1ccc2[nH]c(=O)c3c(c2c1)OC(N)=C(C#N)C3c1ccc(Cl)cc1 (stereo not drawn) [Compound 5l]", "92%"]
]}

Req: Look up viability at 4 days, 50 µM for this compound: Cn1c(=O)c2c(c3ccccc31)OC(N)=C(C#N)C2c1ccccc1 (stereo not drawn) [Compound 5e]
Resp: 90%

Req: Likewise for COc1ccc(C2C(C#N)=C(N)Oc3c2c(=O)n(C)c2ccccc32)cc1 (stereo not drawn) [Compound 5i] ?
Resp: 90%

Req: Another compound to look at: COc1ccc(C2C(C#N)=C(N)Oc3c2c(=O)[nH]c2ccccc32)cc1 (stereo not drawn) [Compound 5f]
Resp: 92%

Req: Try this compound next: N#CC1=C(N)Oc2c(c(=O)[nH]c3ccccc23)C1c1ccc(Cl)cc1 (stereo not drawn) [Compound 5j]
Resp: 91%

Req: Likewise for Cc1ccc2[nH]c(=O)c3c(c2c1)OC(N)=C(C#N)C3c1ccc(Cl)cc1 (stereo not drawn) [Compound 5k] ?
Resp: 93%
